- System: SGK-1 dependent phosphorylation of GSK3beta in U2OS cells
- run.description: SGK-1 dependent phosphorylation of GSK3beta in U2OS cells overexpressing recombinant SGK-1 and GSK3beta
- Type: cell-based, human
- run.parameters: U2OS cells, 6 h incubation, ratio of phosphorylated GSK3beta to total GSK3beta; read-out: IC50 values for inhibition of SGK-1 dependent phosphorylation of GSK3beta in U2OS cells
reported.property: IC50 (nM)
Write it as a number; the unit nM goes unstated.

Exercise: Quick one: IC50 for Cc1n[nH]c2nc(-c3ccc(NS(=O)(=O)c4cc(Cl)ccc4F)cc3)nc(OCC3CNCCO3)c12 (stereo not shown) [Example 291] ?
Key: 76

Exercise: // lookup IC50 for COCCc1nc(-c2ccc(NS(=O)(=O)c3cc(Cl)sc3Cl)cc2)nc2[nH]nc(N)c12 [Example 509]
Key: 2500

Exercise: Find the recorded IC50 belonging to O=S(=O)(Nc1ccc(-c2nc(N3CC(CO)C3)c3cn[nH]c3n2)cc1F)c1cc(Cl)ccc1F [Example 441] and report it.
Key: 11000

Exercise: Value lookup for IC50; key = O=S(=O)(Nc1ccc(-c2nc(C3CC3)c3cn[nH]c3n2)cc1F)c1cc(Cl)ccc1F [Example 443]
Key: 320

Exercise: What does the record list as IC50 for O=S(=O)(Nc1ccc(-c2nc(OC3CCC(O)C3)c3cn[nH]c3n2)cc1)c1cc(Cl)ccc1F (stereo not shown) [Example 75] ?
Key: 250

Exercise: Which IC50 is listed for COc1ccc(C#N)c(S(=O)(=O)Nc2ccc(-c3ncc4c(N)n[nH]c4n3)cc2)c1 [Example 522] ?
Key: 290

Exercise: Entry under review: Nc1n[nH]c2nc(-c3ccc(NS(=O)(=O)c4ccccc4F)cc3)ncc12 [Example 517] . Reported IC50?
Key: 170

Exercise: What value of IC50 has been reported for the following compound? O=S(=O)(Nc1ccc(-c2nc(OC3CCC(O)CC3)c3cn[nH]c3n2)cc1F)c1cc(Cl)ccc1F (stereo not shown) [Example 440]
Key: 240

Exercise: // query IC50 value for entry Cc1nc(-c2ccc(NS(=O)(=O)c3cccc(Cl)c3C#N)cc2)nc2[nH]nc(N)c12 [Example 470]
Key: 2000

Exercise: Query: IC50; subject: COc1ccc(F)c(S(=O)(=O)Nc2ccc(-c3nc(OCC4CNCCO4)c4c(C)n[nH]c4n3)cc2)c1 (stereo not shown) [Example 295]
Key: 25

Exercise: Can you share its IC50? I mean this compound: O=S(=O)(Nc1ccc(-c2nc(N3CCC(O)CC3)c3cn[nH]c3n2)cc1)c1cc(Cl)ccc1Cl [Example 74]
Key: 1200

Exercise: Entry Cc1ccc(C#N)c(S(=O)(=O)Nc2ccc(-c3nc(OCC(F)(F)F)c4c(N)n[nH]c4n3)cc2)c1 [Example 193] has what IC50?
Key: 160

Exercise: If you can, please state the reported IC50 value of Cc1nc(-c2ccc(NS(=O)(=O)c3ccccc3F)cc2)nc2[nH]nc(N)c12 [Example 169] .
Key: 250

Exercise: Report IC50 for Cc1nc(-c2ccc(NS(=O)(=O)c3cc4c(cc3Br)OCCCO4)cc2)nc2[nH]nc(N)c12 [Example 477] please.
Key: 4500

Exercise: Tell me the measured IC50 of Cc1ccc(C#N)c(S(=O)(=O)Nc2ccc(-c3nc(C)c4c(N)n[nH]c4n3)cc2)c1 [Example 468] , please.
Key: 230

Exercise: Sample COc1ccc(Cl)c(S(=O)(=O)Nc2ccc(-c3nc(OCCCN)c4cn[nH]c4n3)cc2)c1 [Example 203] — what was its IC50?
Key: 160

Exercise: // query IC50 value for entry Nc1n[nH]c2cc(-c3ccc(NS(=O)(=O)c4cc(Cl)ccc4Cl)cc3)ncc12 [Example 556]
Key: 1700

Exercise: Quick check: IC50 of COCCc1nc(-c2ccc(NS(=O)(=O)c3cc(Cl)c(F)cc3F)cc2)nc2[nH]nc(N)c12 [Example 501] ?
Key: 450

Exercise: Would you kindly share the measured IC50 for Cc1n[nH]c2nc(-c3ccc(NS(=O)(=O)c4cc(F)ccc4F)cc3)nc(OC3CCC(O)CC3)c12 (stereo not shown) [Example 217] ?
Key: 190

Exercise: Which IC50 value is on record for CC(C)COc1nc(-c2ccc(NS(=O)(=O)c3cc(Cl)ccc3F)cc2)nc2[nH]nc(N)c12 [Example 334] ?
Key: 720

Exercise: Entry Cc1ccc(F)c(S(=O)(=O)Nc2ccc(-c3nc(OCC4CNCCO4)c4c(C)n[nH]c4n3)cc2)c1 (stereo not shown) [Example 288] : reported IC50 = ?
Key: 61

Exercise: Look at this compound and give its reported IC50. COCCc1nc(-c2ccc(NS(=O)(=O)c3cc(OC)ccc3Cl)cc2)nc2[nH]nc(N)c12 [Example 502]
Key: 420

Exercise: Look up IC50: Cc1n[nH]c2nc(-c3ccc(NS(=O)(=O)c4ccccc4F)cc3)nc(OCCCN)c12 [Example 211]
Key: 80

Exercise: Look up IC50 for this compound: Cc1ccc(F)c(S(=O)(=O)Nc2ccc(-c3nc(OC4CCCNC4)c4c(C)n[nH]c4n3)cc2)c1 (stereo not shown) [Example 338]
Key: 44

Exercise: Look at this compound and give its reported IC50. CC(C)(CO)COc1nc(-c2ccc(NS(=O)(=O)c3cc(Cl)ccc3F)cc2)nc2[nH]ncc12 [Example 57]
Key: 500

Exercise: Name the recorded IC50 for O=S(=O)(Nc1ccc(-c2nc(SCCCO)c3cn[nH]c3n2)cc1)c1cc(Cl)ccc1Cl [Example 89] .
Key: 100

Exercise: Reported IC50, compound COc1nc(-c2ccc(NS(=O)(=O)c3cc(Cl)ccc3C#N)cc2)nc2[nH]ncc12 [Example 138] : ____
Key: 3500

Exercise: IC50 for O=S(=O)(Nc1ccc(-c2nc(O[C@@H]3CCC[C@H]3O)c3cn[nH]c3n2)cc1)c1cc(Cl)ccc1F [Example 87] ?
Key: 4100

Exercise: Suppose we examine the compound Cc1ccc(F)c(S(=O)(=O)Nc2ccc(-c3nc(C)c4c(N)n[nH]c4n3)cc2)c1 [Example 472] ; what IC50 value has been reported?
Key: 330

Exercise: Which IC50 value belongs to COCCc1nc(-c2ccc(NS(=O)(=O)c3cc(C)ccc3F)cc2)nc2[nH]nc(N)c12 [Example 503] ?
Key: 630

Exercise: Which IC50 reading was recorded for the compound Cc1nc(-c2ccc(NS(=O)(=O)c3ccc(F)cc3Cl)cc2)nc2[nH]nc(N)c12 [Example 164] ?
Key: 600

====

- experimental.target: recombinant human SGK-1 enzyme (Homo sapiens)
- run.description: Enzymatic activity assay: SGK-1 substrate peptide phosphorylation (Caliper lab-chip mobility shift)
- Format: biochemical
- run.parameters: peptide substrate 1 μM, ATP 10 μM, 60 min at 37° C., read-out: IC50 values for inhibition of SGK-1 enzymatic activity
Rule: IC50 below 4 nM gives Y, anything at or above gives N.

Exercise: Regarding `O=S(=O)(Nc1ccc(-c2nc(N3CCNCC3)c3cn[nH]c3n2)cc1)c1cc(Cl)ccc1Cl` , kindly confirm whether its IC50 is beneath 4 nM.
Key: Y

Exercise: Hello, is IC50 of the following molecule strictly smaller than 4 nM? `Cc1nc(-c2ccc(NS(=O)(=O)c3cc(Cl)ccc3C#N)cc2)nc2[nH]nc(N3CCCC4(COC4)C3)c12`
Key: N

Exercise: Below 4 nM on IC50? Entry `O=S(=O)(Nc1ccc(-c2nc(C3CC3)c3cn[nH]c3n2)cc1)c1cc(Cl)ccc1F`
Key: N

Exercise: Please state whether IC50 is below 4 nM for `COc1ccc(F)c(S(=O)(=O)Nc2ccc(-c3nc(OC4CNC4)c4cn[nH]c4n3)cc2)c1`
Key: Y

Exercise: # check: IC50 < 4 nM for `Cc1nc(-c2ccc(NS(=O)(=O)c3cc(Cl)ccc3Cl)cc2)nc2[nH]nc(N3CCC4(CC3)COC4)c12`
Key: N

Exercise: # check: IC50 < 4 nM for Cc1ccc(C#N)c(S(=O)(=O)Nc2ccc(-c3nc(C4CCC(O)C4)c4c(C)n[nH]c4n3)cc2)c1 (stereo not drawn)
Key: Y

Exercise: # TODO verify IC50 < 4 nM strictly for this molecule: O=S(=O)(Nc1ccc(-c2nc(OCC3CNCCO3)c3cn[nH]c3n2)cc1)c1cc(Cl)ccc1Cl (stereo not drawn)
Key: N

Exercise: Item `Cc1ccc(F)c(S(=O)(=O)Nc2ccc(-c3cc4[nH]nc(C)c4c(OCCC(=O)N(C)C)n3)cc2)c1` : IC50 beneath 4 nM, strictly?
Key: N

====

- experimental.target: recombinant human SGK-1 enzyme (Homo sapiens, UniProt O00141)
- Sequence (O00141 whole entry, looked up): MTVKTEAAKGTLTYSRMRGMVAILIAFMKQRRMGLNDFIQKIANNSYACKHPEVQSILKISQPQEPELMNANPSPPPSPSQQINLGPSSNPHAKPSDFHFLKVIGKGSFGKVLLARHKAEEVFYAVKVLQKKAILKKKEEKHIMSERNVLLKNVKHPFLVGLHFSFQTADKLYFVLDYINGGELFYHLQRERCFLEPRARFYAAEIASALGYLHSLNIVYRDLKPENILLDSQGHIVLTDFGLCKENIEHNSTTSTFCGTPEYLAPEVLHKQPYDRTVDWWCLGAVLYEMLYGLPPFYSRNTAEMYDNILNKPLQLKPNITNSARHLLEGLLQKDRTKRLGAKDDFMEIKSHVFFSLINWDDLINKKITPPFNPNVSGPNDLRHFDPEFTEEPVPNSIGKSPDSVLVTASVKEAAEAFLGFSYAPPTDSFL
- run.description: Enzymatic activity assay: SGK-1 substrate peptide phosphorylation (Caliper lab-chip mobility shift)
- Type: biochemical
- run.parameters: peptide substrate 1 μM, ATP 10 μM, 60 min at 37° C., read-out: IC50 values for inhibition of SGK-1 enzymatic activity
Exercise: state measured pIC50 for each of the molecules provided.
As a rule, pIC50 stands for the negative log10 of the concentration, concentration in M.

Exercise: Field: pIC50 (recombinant human SGK-1 enzyme (Homo sapiens, UniProt O00141)). Entry: `Cc1nc(-c2ccc(NS(=O)(=O)c3cc(F)cc(F)c3Cl)cc2)nc2[nH]nc(N)c12`
Key: 7.80

Exercise: Return pIC50 measured with recombinant human SGK-1 enzyme (Homo sapiens, UniProt O00141) given this molecule: `COc1ccc(Cl)c(S(=O)(=O)Nc2ccc(-c3nc(OC)c4cn[nH]c4n3)cc2)c1`
Key: 8.00

Exercise: What pIC50 appears in the records for this molecule with recombinant human SGK-1 enzyme (Homo sapiens, UniProt O00141)? `CC(=O)N1CCC(Oc2nc(-c3ccc(NS(=O)(=O)c4cc(Cl)ccc4F)cc3)cc3[nH]nc(C)c23)CC1`
Key: 7.96
